Data credit: paper PMC3817407

# SYSTEM_TESTED: T1, ECF02_2817
# T1 chain: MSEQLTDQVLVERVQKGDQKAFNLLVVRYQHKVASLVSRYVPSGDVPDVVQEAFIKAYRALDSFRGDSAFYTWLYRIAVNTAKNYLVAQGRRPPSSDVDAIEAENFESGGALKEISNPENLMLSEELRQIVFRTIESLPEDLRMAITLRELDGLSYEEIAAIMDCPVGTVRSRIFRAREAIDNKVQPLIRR
ASSAY_METRIC: fold repression
// no unit, no text: just the number

AS25_1643_cl43 (protein) MTTDSNFNDPCRRQFSRDLPQKMARHTNEATGAMDMVKRDRFELLSAYLGGEVTAAERRQVEDWPANDVAVQRLYSRLLKLRQGIRTMPIPTAQQSPETTAEQVFAKVNRRSRLAWKLGGAAVAACVIGAVTNWLPGRQTGIPQLAQQPQEQPTQAVTTPDALPMIALNNPVIEIPKAAVASPTKFIQPQPQLGEIPPDIN; 4.05

In plain terms, AS22_1147 (protein) MELDDIAVAWRSLEQRLDQHAALAGQVLGDLRSHAARAHLRPLWLSQSAQLLCAIALSGLVAHSWLAFPEQAAAIVGGVLLQIWCVALAASAARQLWLLSQLDFARPLLQTQRALAQLRRWRTRVAPWLGVAFWVLWVAVADAAWRALTGRSLPYAWLLCNLLVGVLGGIGTWLGYRRLQRSGHPWLERLDTVHAGRSVARTETLLEQIARFQRE has a documented fold repression of 2.38
